system: NCI-H522; assay: NCI tumour cell line growth inhibition, 48 h
Calls of active or inactive are those of the source. Cut-off read from the data, not from the text of the source: active = GI50 up to about 1.1 µM and inactive = higher.
Outcome field: choose from active, inactive

1. CC(C)[C@@H](COC(C)(C)C)/N=C/N1CCc2c([nH]c3ccccc23)C1 = inactive
2. CCOC(=O)C1S/C(=N\c2ccc(OC)c(OC)c2)N=C1C (centres undefined) = inactive

### Prompt Hi, do you know how CC(=O)Nc1cc2c(s1)CCC1CC(=O)NN=C21 (centres undefined) came out in this test?
### Response inactive

### Prompt Hi, do you know how Nc1ncnc2c1ncn2C1OC(CO)C2OC21 (centres undefined) came out in this test?
### Response inactive

### Prompt Hi, do you know how Cc1cc([N+](=O)[O-])c(C)c2c1[nH]c1ccc(/C(CCC3CCCC3)=N\N)cc12 came out in this test?
### Response inactive

----------
system: Hs-578T; test: NCI tumour cell line growth inhibition, 48 h
Active and inactive are the calls of the source. Rule as the data show it: active = GI50 up to about 1.1 µM and inactive = higher.
Record form. Attribute: GI50. Fill in for each entry.

1. CC1(C)N=C(N)N=C(N)N1c1ccc(CCCCCCc2ccc(S(=O)(=O)F)cc2)cc1 = 2.18 µM (inactive)
2. CC1(C)CN=C(Nc2ccc(F)c(F)c2)S1 = > 100 µM (inactive)
3. CC(=O)NC1CCC(NC(=O)OC(C)(C)C)C(NC(=O)OC(C)(C)C)C1 (stereo not given) = > 100 µM (inactive)
4. c1ccc2c(c1)ccn1ccc3c4ccccc4nc-3c21 = 1.23 µM (inactive)
5. C/C=C\C(CC(=O)NCCC1CN(C(=O)OCc2ccccc2)c2ccccc21)CC(=O)OC (stereo not given) = > 100 µM (inactive)
6. O=C([O-])C(O)C(O)C(=O)O.[K+] (stereo not given) [POTASSIUM HYDROGENTARTRATE] = > 100 µM (inactive)
7. COC(=O)/C=c1/c2ccccc2n2nc3ccccc3c12 = 52 µM (inactive)
8. O=C(O)CNC(=O)CO/N=C1/C(=C2/C(=O)Nc3ccccc32)Nc2ccccc21 = > 100 µM (inactive)
9. N=C(N)SCc1cccc2c(=O)cc(-c3ccccc3)oc12 = 16.2 µM (inactive)
10. CC(C(=O)c1ccccc1)C(c1ccccc1)N1CCOCC1 (stereo not given) = > 100 µM (inactive)

Value sought for every listed molecule: GI50.
1. C[N+](C)(C)CC1CCCC(C[N+](C)(C)C)C1=O (stereo not given)
2. [N-]=[N+]=Nc1c(C=O)c(=O)n(-c2ccccc2)c2ccccc12
3. COc1cc(-c2cc(=O)c3c(O)c(CC=C(C)C)c(O)cc3o2)ccc1O
4. COc1cc(C2c3cc4c(cc3CC3COC(=O)N32)OCO4)cc(OC)c1OC (stereo not given)
5. CC(=O)N(CN1C(=O)CCC1C(=O)O)c1cccc(O)c1 (stereo not given)
6. NS(=O)(=O)c1ccc(NC(=O)c2cc([N+](=O)[O-])cc([N+](=O)[O-])c2)cc1
7. CC(=O)Nc1cc2cc(NS(=O)(=O)c3ccc(Cl)c(Cl)c3)ccc2oc1=O
8. COC(NC(=O)Nc1ccc(C)cc1)(C(F)(F)F)C(F)(F)F

### Response
13 µM (inactive)
25.1 µM (inactive)
29.5 µM (inactive)
2.52 µM (inactive)
> 100 µM (inactive)
76.4 µM (inactive)
22.4 µM (inactive)
25 µM (inactive)

# credit: ChEMBL document CHEMBL1201862
